meta.source: the supplement of paper PMC9112550

Tested on: Escherichia coli TOP10;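 note: peptides expressed intracellularly from a pBAD plasmid library in pooled LB shake-flask culture, induced with 0.3% L-arabinose, DNA abundance read by NGS, three biological replicates, DESeq2 with apeglm shrinkage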
assay overview: shrunken log2 fold change of peptide-encoding DNA abundance (4.5 h post-induction vs induction); higher = less antimicrobial activity (less host growth inhibition)
reported conditions: time post-induction: 4.5 h; library: site-saturation at positions 5, 18, 19, 20
# label = condition met if shrunken log2 fold change >= -0.05 else condition not met

The examples below pair each entry with its known result.
In [3]: df
Out[3]:
       biopolymer_sequence     assigned_label
0  RRIRLRPPRLPRPRPRPRQYPRP  condition not met
1  RRIRYRPPRLPRPRPRPQPGPRP  condition not met
2  RRIRVRPPRLPRPRPRPAEPPRP      condition met
3  RRIRVRPPRLPRPRPRPWQYPRP  condition not met
4  RRIRTRPPRLPRPRPRPMITPRP  condition not met
5  RRIRGRPPRLPRPRPRPYWLPRP      condition met
6  RRIRPRPPRLPRPRPRPTNWPRP      condition met
7  RRIRARPPRLPRPRPRPYTIPRP  condition not met
8  RRIRGRPPRLPRPRPRPSCCPRP      condition met
9  RRIRPRPPRLPRPRPRPRNHPRP  condition not met

## Input Given `RRIRCRPPRLPRPRPRPSNAPRP` , state whether its shrunken log2 fold change is at least -0.05.
## Output condition not met

## Input Given `RRIRRRPPRLPRPRPRPSAYPRP` , state whether its shrunken log2 fold change is at least -0.05.
## Output condition met

## Input Given `RRIRNRPPRLPRPRPRPIPKPRP` , state whether its shrunken log2 fold change is at least -0.05.
## Output condition met

## Input Given `RRIRVRPPRLPRPRPRPCCGPRP` , state whether its shrunken log2 fold change is at least -0.05.
## Output condition not met

## Input Given `RRIRFRPPRLPRPRPRPAQCPRP` , state whether its shrunken log2 fold change is at least -0.05.
## Output condition met

## Input Given `RRIRPRPPRLPRPRPRPTSDPRP` , state whether its shrunken log2 fold change is at least -0.05.
## Output condition met
